biological target: T1, cTnI quality control product recombinant protein (human, UniProt P19429 1-210, limits assumed); assay: AMC biosensor, antibody on sensor
T1 construct: the assay paragraphs only say cTnI; also called cardiac troponin I; cTnI antigen
T1 sequence (P19429 whole entry): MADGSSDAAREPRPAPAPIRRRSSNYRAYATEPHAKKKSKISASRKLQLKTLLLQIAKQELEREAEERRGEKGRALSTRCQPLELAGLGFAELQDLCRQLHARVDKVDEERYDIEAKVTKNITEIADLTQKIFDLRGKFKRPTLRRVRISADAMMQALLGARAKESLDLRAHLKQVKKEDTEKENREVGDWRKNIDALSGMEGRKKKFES
MEASUREMENT KIND: koff (s⁻¹)
Write the number in s⁻¹ without appending the unit.

{"BINDER": "Mutation 1-45 (antibody, V domains shown) VH: QVQLQQSGTELAKPGASVKFSCKASGYTFSSYWMYWIKQRPGQGLEWIGYLNPSTGHTDYNQRFKDKATLTADKSSSTAYMQLNSLTSEDSAVYYCARKYWGPFGMDYWGQGTSVTVSS VL: EIFLTQSPAIMSASPGEKVTMTCSASSTVSYVHWYQQKSGTSPKRWLYDTSKLASGIPVRFSGSGSGTSYSLTISSMEAEDAATYYCQQWSSQPYTFGGGTKLEIKR", "REPORTED MEASUREMENT": "9.65e-05"}
{"BINDER": "Mutation 1-51 (antibody, V domains shown) VH: QVQLQQSGTELAKPGASVKFSCKASGYTFTTYWMYWIKQRPGQGLEWIGYINPSTGHTDYNQRFKDKATLTADKSSSTAYMQLNSLTSEDSAVYYCARRYYGPFGMDYWGQGTSVTVSS VL: EIFLTQSPAIMSASPGEKVTMTCSASTSVSYVHWYQQKSGTSPKRWIYDTSKIASGIPVRFSGSGSGTSYSLTISSMEAEDAATYYCQQWSSQPYTFGGGTKLEIKR", "REPORTED MEASUREMENT": "2.15e-05"}

The record that follows has no koff shown yet.
Exercise: Tell me the measured koff of Mutation 1-10 (antibody, V domains shown) VH: QVQLQQSGTELAKPGASVKFSCKASGYTFTSYWMYWIKQRPGQGLEWIGYINPSTGHTDYNQRFKDKATLTADKSSSTAYMQLNSLTSEDSAVYYCARKYYGPFGMDYWGQGTSVTVSS VL: EIFLTQSPAIMSASPGEKVTMTCSASSTVSYVHWYQQKSGTSPKRWLYDTSKLASGIPVRFSGSGSGTSYSLTISSMEAEDAATYYCQQWSTQPYTFGGGTKLEIKR , please.
Solution: 0.000155
